- Tested on: RARa homodimer (NR concentration 270 nM)
- test_protocol: PBM binding z-score (relative to random genomic background probes); higher = stronger binding; sequences stand for … in GC…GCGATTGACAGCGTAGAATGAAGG
Grouping key: PBM binding z-score. Bins: low value: < 0.001; medium value: ≥ 0.001 and < 0.5; high value: ≥ 0.5

{"columns": ["polymer_sequence", "class"],
 "data": [
  ["CTATGTAGGTTAAGGGGGTCATTCATTTTGAAAG", "high value"]
]}

[in] Bin? `CGAACTATGTCAAGGACAGTGAATCTCCGCACGC`
[out] medium value

[in] Can you handle `ACTAGCAGGCCAAGAGTCACTCAAGATTAGTCCG` next?
[out] low value

[in] Then `CGAACTCGGTCACCAGGACAGTGAAGAGGTTGGA` ?
[out] low value
